All figures here come from patent US9249140B2.

# key: entry, value: pIC50
Target: IKKε (Homo sapiens, UniProt Q14164)
Sequence (Q14164 1-716): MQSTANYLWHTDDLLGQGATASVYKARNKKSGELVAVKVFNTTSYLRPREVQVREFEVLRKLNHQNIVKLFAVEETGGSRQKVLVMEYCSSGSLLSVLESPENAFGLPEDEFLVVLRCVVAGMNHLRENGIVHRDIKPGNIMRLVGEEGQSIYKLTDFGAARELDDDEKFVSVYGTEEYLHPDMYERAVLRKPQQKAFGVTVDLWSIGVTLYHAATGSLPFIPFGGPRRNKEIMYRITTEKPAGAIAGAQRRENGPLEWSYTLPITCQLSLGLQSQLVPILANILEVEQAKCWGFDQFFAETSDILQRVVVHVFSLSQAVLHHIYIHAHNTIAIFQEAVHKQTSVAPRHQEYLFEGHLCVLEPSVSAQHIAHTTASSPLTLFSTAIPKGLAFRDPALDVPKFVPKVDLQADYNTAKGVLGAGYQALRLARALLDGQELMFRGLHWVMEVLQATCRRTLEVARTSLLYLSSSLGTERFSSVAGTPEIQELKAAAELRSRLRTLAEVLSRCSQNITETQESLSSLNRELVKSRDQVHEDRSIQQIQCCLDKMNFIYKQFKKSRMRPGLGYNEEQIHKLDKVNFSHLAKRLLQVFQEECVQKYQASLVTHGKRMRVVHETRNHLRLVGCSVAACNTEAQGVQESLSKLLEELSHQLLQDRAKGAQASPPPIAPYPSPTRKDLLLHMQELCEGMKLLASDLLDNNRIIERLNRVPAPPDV
pIC50: −log10 of the molar value.

Worked cases, pIC50 given:
compoundString | pIC50
O=c1ccc(-c2c(C(F)(F)F)cnc3[nH]c(-c4ccc(N5CCOCC5)cc4)cc23)c[nH]1 | 5.52 to 6.52
Cn1cc(-c2c(C(F)(F)F)cnc3[nH]c(-c4ccc(C(=O)N5CCOCC5)cc4)cc23)cn1 | 5.52 to 6.52

Could you now look at the following molecule, please?
Report pIC50 for Cn1cc(-c2c(C(F)(F)F)cnc3[nH]c(-c4cccc(C(=O)N5CCOCC5)c4)cc23)cn1 please. 4.30 to 5.52

* * *

target: FAK (Homo sapiens, UniProt Q05397); construct: 2 nM FAK, 400 nM biotinylated substrate; assay: FAK kinase assay (autophosphorylation), 384-well flashplate; assay type: biochemical; conditions: enzymatic; 1 μM ATP; read-out: IC50 (enzymatic), FAK inhibition
Sequence (Q05397 whole entry): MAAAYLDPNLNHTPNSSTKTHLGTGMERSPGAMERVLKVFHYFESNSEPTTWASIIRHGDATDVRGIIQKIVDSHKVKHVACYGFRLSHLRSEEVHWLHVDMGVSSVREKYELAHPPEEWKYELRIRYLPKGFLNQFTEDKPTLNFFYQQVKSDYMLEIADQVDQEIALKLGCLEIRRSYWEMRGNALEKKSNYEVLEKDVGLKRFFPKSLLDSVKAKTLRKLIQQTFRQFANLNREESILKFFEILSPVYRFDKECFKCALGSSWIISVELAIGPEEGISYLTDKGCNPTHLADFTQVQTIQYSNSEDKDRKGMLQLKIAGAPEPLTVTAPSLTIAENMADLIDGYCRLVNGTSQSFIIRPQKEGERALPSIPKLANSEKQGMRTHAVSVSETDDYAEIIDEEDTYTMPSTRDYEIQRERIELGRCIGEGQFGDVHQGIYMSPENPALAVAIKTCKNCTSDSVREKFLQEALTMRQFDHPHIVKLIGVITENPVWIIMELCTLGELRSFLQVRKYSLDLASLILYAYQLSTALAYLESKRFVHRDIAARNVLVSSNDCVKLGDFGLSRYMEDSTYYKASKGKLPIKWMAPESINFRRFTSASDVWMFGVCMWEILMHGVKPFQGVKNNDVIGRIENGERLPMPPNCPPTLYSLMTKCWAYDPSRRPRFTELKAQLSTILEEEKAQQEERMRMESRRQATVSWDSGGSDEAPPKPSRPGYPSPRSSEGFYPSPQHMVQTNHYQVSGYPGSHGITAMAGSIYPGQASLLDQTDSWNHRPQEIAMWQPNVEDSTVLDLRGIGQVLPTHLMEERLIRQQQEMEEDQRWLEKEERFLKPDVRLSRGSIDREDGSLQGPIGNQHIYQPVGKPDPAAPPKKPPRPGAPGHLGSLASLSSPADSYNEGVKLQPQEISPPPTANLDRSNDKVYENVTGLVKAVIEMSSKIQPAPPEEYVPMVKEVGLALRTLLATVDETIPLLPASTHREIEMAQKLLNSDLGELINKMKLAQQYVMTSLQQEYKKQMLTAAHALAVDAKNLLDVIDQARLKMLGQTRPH
pIC50: −log10 of the molar value.
reportedProperty: pIC50

compoundString | measurementTarget | pIC50
CN(c1ncccc1-c1nc2ccnc(Nc3ccc4c(c3)CCC(=O)N4)c2[nH]1)S(C)(=O)=O | FAK (Homo sapiens, UniProt Q05397) | 4.30 to 5.52
CN(c1ncccc1-c1nc2ncnc(Nc3ccc(N4CCOCC4)cc3)c2[nH]1)S(C)(=O)=O | FAK (Homo sapiens, UniProt Q05397) | 4.30 to 5.52

Could you now look at the following molecule, please?
Report pIC50 for CN(c1ncccc1-c1cc2ccnc(Nc3ccc4c(c3)CC(=O)N4)c2[nH]1)S(C)(=O)=O please. 4.30 to 5.52

* * *

TANK binding kinase (TBK1) (Homo sapiens, UniProt Q9UHD2) data, read-out pIC50
Sequence (Q9UHD2 whole entry, species assumed): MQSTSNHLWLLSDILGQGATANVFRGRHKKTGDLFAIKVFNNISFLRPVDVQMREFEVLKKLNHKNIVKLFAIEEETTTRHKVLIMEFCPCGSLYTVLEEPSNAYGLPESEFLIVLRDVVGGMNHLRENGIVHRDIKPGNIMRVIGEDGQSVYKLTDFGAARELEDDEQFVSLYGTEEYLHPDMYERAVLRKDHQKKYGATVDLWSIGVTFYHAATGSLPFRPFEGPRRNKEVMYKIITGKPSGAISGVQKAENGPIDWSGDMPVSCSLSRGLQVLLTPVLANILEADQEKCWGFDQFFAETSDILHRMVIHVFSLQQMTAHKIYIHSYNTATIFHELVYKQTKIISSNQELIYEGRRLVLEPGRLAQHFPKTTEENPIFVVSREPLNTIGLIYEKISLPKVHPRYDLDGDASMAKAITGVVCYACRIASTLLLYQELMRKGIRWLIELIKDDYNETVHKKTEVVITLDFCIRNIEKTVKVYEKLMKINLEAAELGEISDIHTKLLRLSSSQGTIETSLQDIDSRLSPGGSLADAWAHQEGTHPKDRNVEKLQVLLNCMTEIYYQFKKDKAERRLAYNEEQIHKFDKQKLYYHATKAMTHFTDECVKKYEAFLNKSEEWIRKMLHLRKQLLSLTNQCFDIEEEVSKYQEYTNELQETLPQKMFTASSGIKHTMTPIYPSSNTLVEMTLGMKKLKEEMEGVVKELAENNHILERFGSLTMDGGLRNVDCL
pIC50: −log10 of the molar value.

compoundString | measurementTarget | reportedProperty | testValue
Cn1cc(-c2c(C(F)(F)F)cnc3[nH]c(-c4ccc(C(=O)N5CCOCC5)cc4)cc23)cn1 | TANK binding kinase (TBK1) (Homo sapiens, UniProt Q9UHD2) | pIC50 | > 6.52

Which measured pIC50 belongs to Nc1ccc(-c2c(C(F)(F)F)cnc3[nH]c(-c4ccc(N5CCOCC5)cc4)cc23)cc1 , tested on TANK binding kinase (TBK1) (Homo sapiens, UniProt Q9UHD2)? 5.52 to 6.52

* * *

biological target: FAK (Homo sapiens, UniProt Q05397); construct: 2 nM FAK, 400 nM biotinylated substrate; test: FAK kinase assay (autophosphorylation), 384-well flashplate; assay type: biochemical; conditions: enzymatic; 1 μM ATP; read-out: IC50 (enzymatic), FAK inhibition
reportedProperty: IC50

Worked cases, IC50 given:
compoundString | IC50
CN(c1ncccc1-c1cc2ccnc(Nc3ccc(N4CCOCC4)cc3)c2[nH]1)S(C)(=O)=O | 3 to 50 µM
CN(c1ncccc1CNc1c(C#N)cnc2[nH]cc(Cl)c12)S(C)(=O)=O | 0.3 to 3 µM
CN(c1ncccc1-c1cc2ccnc(Nc3ccc4c(c3)CCC(=O)N4)c2[nH]1)S(C)(=O)=O | 3 to 50 µM
CN(c1ncccc1-c1nc2ncnc(Nc3cnn(C)c3)c2[nH]1)S(C)(=O)=O | 3 to 50 µM

Could you now look at the following compound, please?
Report IC50 for COc1cc(N2CCOCC2)ccc1Nc1ncnc2nc(-c3cccnc3N(C)S(C)(=O)=O)[nH]c12 please. 3 to 50 µM

* * *

target: FAK (Homo sapiens); construct: 2 nM FAK, 400 nM biotinylated substrate; assay: Cellular testing of FAK kinase inhibitors: autophosphorylation of FAK at tyrosine 397, Luminex-based assay in HT29 cells; type: cell-based; conditions: P-Y397-FAK in HT29 cells, 30 min, serum-free, read-out: IC50 (cellular), FAK inhibition
reportedProperty: IC50

Report IC50 for CN(c1ncccc1CNc1c(C#N)cnc2[nH]cc(Cl)c12)S(C)(=O)=O [A10] please. 3 to 50 µM
